- assay summary: Inhibition of IL-6-induced cell adhesion in human U937 cells assessed as reduction in cell adhesion to HT-29 cells at 1 uM relative to control
- Format: functional
- assay setup: U-937
Please mark Criterion met if the recorded inhibition at 1 µM is equal to or greater than 30%, and Criterion not met if it falls below.

// known answers, use as guide
-- ask Confirm if inhibition at 1 µM reported for the compound Cc1nc(NC(=O)CC(C)CC(C)(C)C)c(C)c(C)c1O (stereo not drawn) is 30% or above.
-- reply Criterion met

-- ask Does Cc1nc(NC(=O)C(C)(C)C)c(C)c(C)c1O have a reported inhibition at 1 µM of at least 30%?
-- reply Criterion not met

-- ask Identify whether the reported inhibition at 1 µM of the following compound is 30% or greater: Cc1nc(NC(=O)/C=C/c2ccccc2)c(C)c(C)c1O
-- reply Criterion not met

-- ask Does inhibition at 1 µM meet or surpass 30% for Cc1nc(NC(=O)CCc2ccccc2F)c(C)c(C)c1O ?
-- reply Criterion not met

-- ask Kindly determine if inhibition at 1 µM recorded for C[C@@H]1CCN(C(=O)CC#N)C[C@@H]1N(C)c1ncnc2[nH]ccc12 is above or exactly 30%.
-- reply Criterion met

With those in mind, consider the next compound.
-- ask Can Cc1nc(NC(=O)COc2ccccc2)c(C)c(C)c1O be said to have inhibition at 1 µM at or above 30%?
-- reply Criterion not met
